Origin of measurements: patent US20240197726A1

Below: a set of entries, each annotated with reported GI50.
System: MKN-A gastric cancer cells
protocol-description: antitumor activity, sulforhodamine B cell growth assay, MKN-A
Assay type: cell-based
measurement-setup: MKN-A gastric cancer cells; read-out: antitumor activity GI50 value: 50% growth inhibitory concentration
Provide the reading as a plain figure in nM.

Some entries whose results are on file:
CC1=C(C)C(=O)C2=C(CC3(C)[C@H]4c5c(cc(C)c(C)c5C)C[C@@](C)(C(C)N3[C@H]2CNC(=O)C(C)C)N4C)C1=O (stereo partly shown) [drawing 164]; 250
CC1=C(C)C(=O)C2=C(CC3(C)[C@H]4c5c(cc(C)c(C)c5C)C[C@@](C)(C(C)N3[C@H]2CNC(=O)C(C)C)N4C)C1=O (stereo partly shown) [drawing 160]; 250

So for C#CCN1C(=O)[C@H]2[C@@H]3C=C(COc4c(C)c5c(c6c4C[C@H]4[C@H]7c8c(cc(C)c(OC)c8O)C[C@@H]([C@H](C#N)N4C6CNC(=O)[C@H](C)NC(=O)OC3)N7C)OCO5)C[C@H]2C1=O , the logged GI50 turned out to be 1400
